Kindly state n / nH (Hill coefficient) for each of the entries shown.
ASSAYED SYSTEM: UniProt P35236
Sequence (P35236 1-360): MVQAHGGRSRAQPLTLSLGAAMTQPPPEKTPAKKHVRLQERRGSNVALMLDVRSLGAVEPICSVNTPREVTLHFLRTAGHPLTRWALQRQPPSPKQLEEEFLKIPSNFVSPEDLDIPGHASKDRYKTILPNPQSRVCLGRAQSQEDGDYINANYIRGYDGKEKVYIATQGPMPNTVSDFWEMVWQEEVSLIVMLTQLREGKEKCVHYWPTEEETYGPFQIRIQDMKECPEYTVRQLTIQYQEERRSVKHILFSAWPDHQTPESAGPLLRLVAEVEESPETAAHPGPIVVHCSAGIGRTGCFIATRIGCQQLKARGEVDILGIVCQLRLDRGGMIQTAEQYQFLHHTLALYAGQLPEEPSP
ASSAY INFO: HePTP dose-response confirmation screening
Format: biochemical
PARTICULARS: Hill coefficient of the dose-response curve
I'd appreciate a reply containing only the number, no unit.

Input: Consider the compound O=C(O)c1ccccc1-c1ccc(/C=c2\sc3nc4cc(Br)cnc4n3c2=O)o1 and give its measured n / nH (Hill coefficient).
Output: 7.56

Input: Repeat with CC(=O)OCC1=C(C(=O)[O-])N2C(=O)[C@H](NC(=O)Cc3cccs3)[C@H]2SC1.[Na+]
Output: 1.12

Input: Repeat with CCOC(=O)C(C)Sc1nc2c(c(=O)[nH]c(=O)n2C)n1C/C=C(/C)Cl (centres unmarked)
Output: 1.44

Input: Repeat with COc1ccc(Br)cc1/C=c1\sc2nc(-c3ccco3)nn2c1=O
Output: 2.5

Input: Repeat with O=C(NCc1ccco1)c1c2c(nc3ccccc13)CCC2
Output: 1.52
